Each entry below lists one item and its recorded Hepatotoxicity (choleostasis) value.
test parameters: human

{"compound": "CCC1(c2ccccc2)C(=O)NC(=O)N(C)C1=O (configuration not stated)", "Hepatotoxicity (choleostasis)": 0}
{"compound": "N=C(N)NCCCCCCC(=O)NC(O)C(=O)NCCCCNCCCN (configuration not stated)", "Hepatotoxicity (choleostasis)": 0}
{"compound": "CC(C)NCC(O)COc1ccc(CC(N)=O)cc1 (configuration not stated)", "Hepatotoxicity (choleostasis)": 1}
{"compound": "CN(C)CC/C=C1\\c2ccccc2CSc2ccccc21 [DOTHIEPIN]", "Hepatotoxicity (choleostasis)": 2}
{"compound": "O=c1n(CC2CO2)c(=O)n(CC2CO2)n1CC1CO1 (configuration not stated)", "Hepatotoxicity (choleostasis)": 0}
{"compound": "CC[C@]1(O)C[C@H]2CN(CCc3c([nH]c4ccccc34)[C@@](C(=O)OC)(c3cc4c(cc3OC)N(C=O)[C@H]3[C@@](O)(C(=O)OC)[C@H](OC(C)=O)[C@]5(CC)C=CCN6CC[C@]43[C@@H]65)C2)C1", "Hepatotoxicity (choleostasis)": 0}
{"compound": "O=C1CC[C@@]2(O)[C@H]3Cc4ccc(O)c5c4[C@@]2(CCN3CC2CC2)[C@H]1O5 [NALTREXONE]", "Hepatotoxicity (choleostasis)": 0}

---

test parameters: human, serum
Think of 2 as a floor: if Hepatotoxicity (moderate) stands on it or above, it is 1.0; beneath it, 0.0.

{"compound": "CC(=O)O[C@H]1C[C@@]2(C)[C@@H](C[C@@H](O)[C@H]3[C@@]4(C)CC[C@@H](O)[C@@H](C)[C@@H]4CC[C@@]32C)/C1=C(\\CCC=C(C)C)C(=O)O [FUSIDIC ACID]", "label": 1.0}
{"compound": "CCOC(=O)CN[C@@H](C(=O)N1CC[C@H]1C(=O)NCc1ccc(/C(N)=N\\O)cc1)C1CCCCC1 [XIMELAGATRAN]", "label": 1.0}
{"compound": "C[C@]12CC[C@H]3[C@@H](CCC4=CC(=O)CC[C@@]43C)[C@@H]1CC[C@@H]2O [TESTOSTERONE]", "label": 0.0}
{"compound": "NCCNC(=O)c1ccc(Cl)cn1 [LAZABEMIDE]", "label": 0.0}
{"compound": "C[C@]12CCC(=O)C=C1CC[C@@H]1[C@@H]2[C@@H](O)C[C@@]2(C)[C@H]1CC[C@]2(O)C(=O)CO [HYDROCORTISONE]", "label": 0.0}

---

assay overview: Highest frequency of acute liver toxicity observed during clinical trials, expressed as a percentage. [column '% AIGUE' in source]
test parameters: human

{"compound": "CC(C)(C)C(=O)OCOC(=O)[C@@H]1N2C(=O)[C@@H](NC(=O)[C@H](N)c3ccccc3)[C@H]2SC1(C)C", "output unit": "%", "Hepatotoxicity (acute)": 0}
{"compound": "CC(=O)O[C@]1(C(C)=O)CC[C@H]2[C@@H]3C=C(C)C4=CC(=O)CC[C@]4(C)[C@H]3CC[C@@]21C [MEGESTROL ACETATE]", "output unit": "%", "Hepatotoxicity (acute)": 2.7}
{"compound": "CCCCC1C(=O)NN(c2ccccc2)C1=O (stereo not given)", "output unit": "%", "Hepatotoxicity (acute)": 0}
{"compound": "COc1cccc2c1C(=O)c1c(O)c3c(c(O)c1C2=O)C[C@@](O)(C(C)=O)C[C@@H]3O[C@H]1C[C@H](N)[C@H](O)[C@H](C)O1", "output unit": "%", "Hepatotoxicity (acute)": 0}
{"compound": "Cc1onc(-c2c(F)cccc2Cl)c1C(=O)N[C@@H]1C(=O)N2[C@@H]1SC(C)(C)[C@@H]2C(=O)O", "output unit": "%", "Hepatotoxicity (acute)": 0}
{"compound": "Nc1ccc(/N=N/c2ccccc2)c(N)n1", "output unit": "%", "Hepatotoxicity (acute)": 0}
{"compound": "CCC(C)n1ncn(-c2ccc(N3CCN(c4ccc(OC[C@H]5CO[C@](Cn6cncn6)(c6ccc(F)cc6F)O5)cc4)CC3)cc2)c1=O (stereo not given in full)", "output unit": "%", "Hepatotoxicity (acute)": 0}
{"compound": "C(=C\\c1ccccc1)/CN1CCN(C(c2ccccc2)c2ccccc2)CC1", "output unit": "%", "Hepatotoxicity (acute)": 0}
{"compound": "Cc1ccc(Cl)c(Nc2ccccc2C(=O)O)c1Cl", "output unit": "%", "Hepatotoxicity (acute)": 0}
{"compound": "Fc1ccccc1C1=NCC(=S)N(CC(F)(F)F)c2ccc(Cl)cc21", "output unit": "%", "Hepatotoxicity (acute)": 0}
{"compound": "C[C@]12CC[C@H]3[C@@H](CCC4=CC(=O)CC[C@@]43C)[C@@H]1CC[C@@H]2O", "output unit": "%", "Hepatotoxicity (acute)": 0}
{"compound": "CC1COc2c(N3CCN(C)CC3)c(F)cc3c(=O)c(C(=O)O)cn1c23 (stereo not given)", "output unit": "%", "Hepatotoxicity (acute)": 18.2}
{"compound": "COc1cc2nc(N3CCN(C(=O)C4CCCO4)CC3)nc(N)c2cc1OC (stereo not given)", "output unit": "%", "Hepatotoxicity (acute)": 0}
{"compound": "NC(=O)NC(=O)Cc1ccccc1 [PHENACEMIDE]", "output unit": "%", "Hepatotoxicity (acute)": 3}
{"compound": "OC[C@H]1O[C@@H](n2cnc3c2NC=NC[C@H]3O)C[C@@H]1O", "output unit": "%", "Hepatotoxicity (acute)": 0}
{"compound": "CN(C)c1ccc(O)c2c1C[C@H]1C[C@H]3[C@H](N(C)C)C(O)=C(C(N)=O)C(=O)[C@@]3(O)C(O)=C1C2=O", "output unit": "%", "Hepatotoxicity (acute)": 0}
{"compound": "CC(C)c1c(C(=O)Nc2ccccc2)c(-c2ccccc2)c(-c2ccc(F)cc2)n1CC[C@@H](O)C[C@@H](O)CC(=O)O", "output unit": "%", "Hepatotoxicity (acute)": 1.8}
{"compound": "C1CCC(C(CC2CCCCN2)C2CCCCC2)CC1 (stereo not given)", "output unit": "%", "Hepatotoxicity (acute)": 0}
{"compound": "CO[C@@]1(NC(=O)C2SC(=C(C(N)=O)C(=O)O)S2)C(=O)N2C(C(=O)O)=C(CSc3nnnn3C)CS[C@@H]21 (stereo not given in full)", "output unit": "%", "Hepatotoxicity (acute)": 0}
{"compound": "C=C1c2cccc(O)c2C(=O)C2=C(O)[C@]3(O)C(=O)C(C(N)=O)=C(O)[C@@H](N(C)C)[C@@H]3[C@@H](O)[C@H]12", "output unit": "%", "Hepatotoxicity (acute)": 0}
